Biological target: c-Met (Homo sapiens)
Construct: Kinases are expressed as either kinase domains or full length constructs; made in house
Sequence (P08581 25-1390): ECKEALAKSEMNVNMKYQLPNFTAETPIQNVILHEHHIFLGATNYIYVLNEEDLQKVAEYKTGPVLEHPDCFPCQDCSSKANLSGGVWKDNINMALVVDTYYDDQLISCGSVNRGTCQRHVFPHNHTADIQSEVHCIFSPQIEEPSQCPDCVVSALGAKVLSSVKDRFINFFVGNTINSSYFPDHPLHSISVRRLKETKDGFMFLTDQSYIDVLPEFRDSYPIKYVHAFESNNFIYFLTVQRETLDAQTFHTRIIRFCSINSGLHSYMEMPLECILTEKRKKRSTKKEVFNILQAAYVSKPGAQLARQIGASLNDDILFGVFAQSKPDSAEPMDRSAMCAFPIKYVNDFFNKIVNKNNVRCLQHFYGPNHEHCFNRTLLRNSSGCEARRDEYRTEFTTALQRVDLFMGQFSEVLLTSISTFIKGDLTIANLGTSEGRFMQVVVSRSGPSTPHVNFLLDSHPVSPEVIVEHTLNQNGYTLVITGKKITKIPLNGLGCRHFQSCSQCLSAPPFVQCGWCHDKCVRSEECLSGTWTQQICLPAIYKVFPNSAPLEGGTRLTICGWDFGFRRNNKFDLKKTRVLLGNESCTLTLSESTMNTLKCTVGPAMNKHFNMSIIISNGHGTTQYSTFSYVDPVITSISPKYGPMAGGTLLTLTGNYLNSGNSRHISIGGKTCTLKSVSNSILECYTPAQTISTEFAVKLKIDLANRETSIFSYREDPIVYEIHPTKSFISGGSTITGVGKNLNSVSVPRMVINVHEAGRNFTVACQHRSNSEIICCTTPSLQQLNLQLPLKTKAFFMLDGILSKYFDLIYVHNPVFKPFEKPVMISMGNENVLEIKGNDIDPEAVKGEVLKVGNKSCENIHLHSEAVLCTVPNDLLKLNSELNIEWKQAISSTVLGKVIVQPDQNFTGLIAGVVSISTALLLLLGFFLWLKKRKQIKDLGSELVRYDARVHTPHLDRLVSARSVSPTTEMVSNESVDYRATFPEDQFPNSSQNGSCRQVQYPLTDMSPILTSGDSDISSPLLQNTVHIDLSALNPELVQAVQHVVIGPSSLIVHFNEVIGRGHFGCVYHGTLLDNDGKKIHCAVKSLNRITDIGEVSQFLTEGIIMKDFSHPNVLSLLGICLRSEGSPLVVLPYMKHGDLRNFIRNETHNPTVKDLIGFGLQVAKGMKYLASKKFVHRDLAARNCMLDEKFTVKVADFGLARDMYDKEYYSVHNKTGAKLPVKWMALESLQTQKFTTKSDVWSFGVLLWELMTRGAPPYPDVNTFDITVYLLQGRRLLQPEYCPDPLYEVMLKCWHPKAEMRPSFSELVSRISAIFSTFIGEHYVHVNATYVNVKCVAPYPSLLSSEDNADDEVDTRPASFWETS
Assay: Kinase inhibition assay (33P transfer), c-Met
Type: biochemical
Conditions: Table 2, kinase inhibition class; read-out: Met-1
Description: The inhibitor compounds described herein are screened in the following manner. […] Kinases are expressed as either kinase domains or full length constructs fused to glutathione S-transferase (GST) or polyHistidine tagged fusion proteins in either E. colior Baculovirus-High Five expression systems. […] Kinase activity and inhibition are measured essentially by established protocols (Braunwalder et al., 1996). […]
pIC50: −log10 of the molar value.
OBSERVED PROPERTY: pIC50

1. COc1ccc(Nc2ncnc(-n3cccc3)n2)c(OC)c1	< 4.82
2. CN(c1cccc(Cl)c1)c1ncnc(Nc2ccc(Cl)c(Cl)c2)n1	< 4.93
3. ClCc1ccccc1Nc1ncnc(-n2cccc2)n1	< 4.80
4. CN(c1cccc(Cl)c1)c1ncnc(Nc2ccc(NC(=O)OC(C)(C)C)cc2)n1	5.09 to 5.25
5. Nc1nc2ccccc2n1-c1ncnc(Nc2cccnc2)n1	< 4.83
6. FC(F)C(F)(F)Oc1cccc(Nc2ncnc(-c3ccnc(Cl)c3)n2)c1	< 4.95
7. COc1cc(Nc2ncnc(Nc3ccc(S(=O)(=O)NC(C)=O)cc3)n2)cc(OC)c1OC	< 5.02
8. COc1cc(Nc2ncnc(Nc3ccc(Br)cc3F)n2)cc(OC)c1OC	5.11 to 5.27
9. COc1ccc(Nc2ncnc(NCCCOC(C)C)n2)cc1OC	< 4.89
10. COc1cc(Nc2ncnc(-n3c(NCc4ccc(F)cc4)nc4ccccc43)n2)cc(OC)c1OC	< 5.05
11. COCCOc1ccc(Nc2ncnc(Nc3ccc(C)c(O)c3)n2)cc1OC	< 4.95
12. CCOC(=O)Cc1ccc(Nc2ncnc(-c3ccccc3)n2)cc1	< 4.87
13. CCN(CC)c1ccc(Nc2ncnc(N3CCCc4cc(C)ccc43)n2)cc1	< 4.94
14. COc1ccc(CNc2ncccc2-c2ncnc(Nc3cc(OC)c(OC)c(OC)c3)n2)nc1	< 5.02
15. CN(c1cccc(Cl)c1)c1ncnc(Nc2ccncc2)n1	5.12 to 5.89
16. COc1cc(Nc2ncnc(NC3CCc4ccccc43)n2)cc(OC)c1OC (stereo not shown)	< 4.94

Recorded values, source patent US7074789B2.
